Tested on: Enrlich carcinoma
Assay: Antineoplastic activity against Enrlich carcinoma (life prolongation rate)
Type: in vivo, 5-week-old ICR mice (male)
Conditions: Mus musculus, ip, 1440 h, 8.0 mg/kg/day, intraperitoneal, once a day, 7 days; read-out: Life prolongation rate (T/C %)
Entries annotated with measured response vs control in vivo at 8 mg/kg
Provide the reading as a plain figure in %.

| Molecule | response vs control in vivo at 8 mg/kg, % |
| --- | --- |
| Cn1cncc1Br | 215 |
| O=[Se](OC1C2CCC(C2)C1Cl)OC1C2CCC(C2)C1Cl (stereo not drawn) | 201 |
| CCC(Cl)CO[Se](=O)OCC(Cl)CC (stereo not drawn) | 212 |
| CC(Cl)C(C)O[Se](=O)OC(C)C(C)Cl (stereo not drawn) | 193 |
| Fc1cccnc1 | 201 |
| O=[Se](OCC(Cl)c1ccccc1)OCC(Cl)c1ccccc1 (stereo not drawn) | 223 |

Prompt line: Check the records and state response vs control in vivo at 8 mg/kg for c1ccc(-c2ccncc2)cc1
Response line: 230

Prompt line: Check the records and state response vs control in vivo at 8 mg/kg for CC(C)(Cl)CO[Se](=O)OCC(C)(C)Cl
Response line: 207

Prompt line: Check the records and state response vs control in vivo at 8 mg/kg for CC(C)c1ccncc1
Response line: 256

----------
Entries annotated with measured response vs control in vivo at 2 mg/kg
Tested on: Enrlich carcinoma
Assay: Antineoplastic activity against Enrlich carcinoma (life prolongation rate)
Format: in vivo, 5-week-old ICR mice (male)
Conditions: Mus musculus, ip, 1440 h, 2.0 mg/kg/day, intraperitoneal, once a day, 7 days; read-out: Life prolongation rate (T/C %)
Provide the reading as a plain figure in %.

Consider the following illustrative entries.
| Molecule | Observed Value |
| --- | --- |
| Brc1cccnc1 | 163 |
| Clc1cncc(Cl)c1 | 154 |
| CCC(Cl)CO[Se](=O)OCC(Cl)CC (stereo not drawn) | 205 |

Prompt line: Check the records and state response vs control in vivo at 2 mg/kg for CC(Cl)C(C)O[Se](=O)OC(C)C(C)Cl (stereo not drawn)
Response line: 177

Prompt line: Check the records and state response vs control in vivo at 2 mg/kg for O=[Se](OC1C2CCC(C2)C1Cl)OC1C2CCC(C2)C1Cl (stereo not drawn)
Response line: 143

Prompt line: Check the records and state response vs control in vivo at 2 mg/kg for CC(C)(Cl)CO[Se](=O)OCC(C)(C)Cl
Response line: 178

Prompt line: Check the records and state response vs control in vivo at 2 mg/kg for Fc1cccnc1
Response line: 194

Prompt line: Check the records and state response vs control in vivo at 2 mg/kg for Cn1c(=O)c2c(ncn2Cc2ccccc2)n(C)c1=O
Response line: 138

Prompt line: Check the records and state response vs control in vivo at 2 mg/kg for O=P(c1ccccc1)(c1ccccc1)c1ccccc1
Response line: 155

----------
Experiment: in vivo
Conditions: mouse, ip, LD50, intraperitoneal, once a day, 7 days, mice
Metric Name: LD50

Consider the following illustrative entries.
| Molecule | Metric Name | Observed Value |
| --- | --- | --- |
| Clc1cncc(Cl)c1 [Compound 1-15] | LD50 | 8 to 16 mg/kg |
| CCc1ccncc1 [Compound 1-6] | LD50 | 8 to 16 mg/kg |
| CCC(Cl)CO[Se](=O)OCC(Cl)CC (centres unmarked) [Compound 3-3, Di-(2-chlorobutyl)selenite] | LD50 | > 8 mg/kg |
| CN(C)c1ccncc1 [Compound 3-12] | LD50 | > 16 mg/kg |
| Cn1cnc2c1c(=O)n(Cc1ccccc1)c(=O)n2C [Compound 1-34] | LD50 | > 16 mg/kg |

Prompt line: Check the records and state LD50 for Brc1cccnc1 [Compound 1-14]
Response line: 8 to 16 mg/kg

Where these numbers come from: patent US4824955A
